Test system: U2OS
Experiment: Incucyte cell viability with U2OS; note: unitless GR value; below 1 slowed growth and below 0 cell loss
Format: toxicity, cell-based
Details: human, 0 h, 10 µM, compound concentration 10 uM, replicate number 1
Entries and their measured Growth Rate follow.
property.label: Growth Rate

>>> recorded_number("CC(=O)Nc1ncc(CN2CCC[C@H](Cc3cc(C)nc(C)c3)C2)s1")
-1
>>> recorded_number("C[C@H](c1ccnc(Nc2nc3ccc(-c4cc(N(C)C)ncn4)cc3[nH]2)c1)N1CCN(C(=O)CC(F)(F)F)CC1")
-0.23
>>> recorded_number("CCC(=O)O[C@@H](OP(=O)(CCCCc1ccccc1)CC(=O)N1C[C@H](C2CCCCC2)C[C@H]1C(=O)[O-])C(C)C.[Na+] (some centres not stated)")
0.02
>>> recorded_number("N[C@@H](Cn1cc(F)c(=O)[nH]c1=O)C(=O)O")
0.45
>>> recorded_number("COC[C@H](O)Cn1c(=O)cnn(-c2ccc(Cl)c(C(=O)NCC3(O)CCCCCC3)c2)c1=O")
-0.6
>>> recorded_number("COc1ccc2c(O[C@@H]3C[C@H]4C(=O)N[C@]5(C(=O)O)CC5/C=C\\CCCCC[C@H](NC(=O)OC5CCCC5)C(=O)N4C3)cc(-c3csc(NC(=O)C(C)C)n3)nc2c1C (some centres not stated)")
0.55
>>> recorded_number("CCOC(=O)Nc1ccc2c(c1)N(C(=O)CN(CC)CC)c1ccccc1CC2")
0.1

====

System: HEK-293T
Experiment: Incucyte cell viability with HEK293T; note: unitless GR value; below 1 slowed growth and below 0 cell loss
Assay type: toxicity, cell-based
Details: human, 12 h, 10 µM, compound concentration 10 uM, replicate number 2
property.label: Growth Rate

>>> recorded_number("CCN(CC)C/C=C/C(=O)Nc1cc2c(Nc3ccc(F)c(Cl)c3)ncnc2cc1OCC1CC1")
-0.32
>>> recorded_number("CC1(C)OC(=O)c2ccc(Nc3ncc(-c4nnco4)c(N[C@H](CO)c4ccccc4)n3)cc21")
-0.01
>>> recorded_number("N#CN1CC[C@H](C(=O)Nc2nc3c(s2)CN(C(=O)CN=[N+]=[N-])CC3)C1")
0.81
>>> recorded_number("c1ccc(C(OC2CCN(CCCc3nnn[nH]3)CC2)c2ccccc2)cc1")
0.67
>>> recorded_number("Cc1cc(-c2nncc3c(C(C)(C)C)c(OCc4ncnn4C)nn23)no1")
0.53
>>> recorded_number("Cn1c(SCc2ccc(C(C)(C)C)cc2)nc(N)cc1=O")
0.05
>>> recorded_number("CCOC(=O)C1=C[C@]2(CC)CCCN3CCc4c(n1c1ccccc41)[C@@H]32")
0.83
>>> recorded_number("O=C(O)CNC(=O)c1c(O)c2ccccc2n(Cc2ccccc2)c1=O")
0.91
>>> recorded_number("CN1CCN(c2ccc(/C=C(\\C#N)c3ccccc3Br)cc2)CC1.Cl.Cl")
0.47
>>> recorded_number("CNC(=O)c1c[nH]c2ccc(Nc3nccc(-c4ccccn4)n3)cc12")
0.1
>>> recorded_number("COc1cc2ncnc(Nc3ccc(F)c(Cl)c3)c2cc1OCCN(C)C[C@H](C)O")
0.49
>>> recorded_number("CCC(=N\\O)/C(C)=C/c1ccc(F)cc1")
-0.09
>>> recorded_number("Cn1ccc(Cn2cnc(-c3ccc(F)cc3)c2-c2ccnc3[nH]ccc23)n1")
0.86
>>> recorded_number("C=CC(=O)Nc1cc(-c2nn(C3CCC(N4CCN(C(C)=O)CC4)CC3)c3ncnc(N)c23)ccc1Oc1ccccc1 (stereo not given)")
-0.56
>>> recorded_number("O=C(Nc1ccc(Cl)c(-c2ccccn2)c1)c1cccc(COc2ccc(Br)cc2CNCCO)c1.O=CO")
-0.32
>>> recorded_number("Cc1onc(-c2ccc(F)cc2)c1COc1ccc(C(=O)N2CCS(=O)(=O)CC2)cn1")
0.86
>>> recorded_number("CC1(C)C[C@@H]1C(=O)N/C(=C\\CCCCSC[C@H](N)C(=O)O)C(=O)O")
0.9
>>> recorded_number("CCCCNc1ncc2c(-c3ccc(CN4CCN(C)CC4)cc3)cn([C@H]3CC[C@H](O)CC3)c2n1")
-0.55
>>> recorded_number("CN[C@@H]1CC[C@@H](c2ccc(Cl)c(Cl)c2)c2ccccc21.Cl")
-0.18
>>> recorded_number("CNc1nc(-c2cc(C(=O)N3CCN(Cc4ccc(Cl)cc4)CC3)c(Cl)cn2)cs1")
0.01
>>> recorded_number("O=C(O)Cc1cc(I)c(Oc2ccc(O)c(I)c2)c(I)c1")
0.66
>>> recorded_number("CC[C@]1(C)C[C@@H](OC(=O)CSc2nnc(N)[nH]2)[C@@]2(C)[C@H](C)CC[C@@]3(CCC(=O)[C@H]32)[C@@H](C)[C@@H]1O")
0.81
>>> recorded_number("CN1CCN([C@H]2CC[C@@H](n3cc(-c4ccc(Oc5ccccc5)cc4)c4c(N)ncnc43)CC2)CC1")
-0.8
>>> recorded_number("CC(=O)N1CCN([C@H]2CCC[C@@H](NC(=O)c3cc4c(F)ccc(C)c4[nH]3)C2)CC1.O=C(O)C(F)(F)F")
0.4
>>> recorded_number("CCS(=O)(=O)Nc1cccc(Oc2cc(F)cc(Nc3ccc(I)cc3F)c2NS(=O)(=O)C2CC2)c1")
0.42
>>> recorded_number("Cc1ccc(-c2c(C(=O)CF)n(CCCO)c3ncnc(N)c23)cc1")
0.68
>>> recorded_number("O=C(O)CCCc1cc2cc(Cl)ccc2n1S(=O)(=O)c1ccc2ncsc2c1")
0.73
>>> recorded_number("CN[C@@H](C)C(=O)N[C@H]1CCCC[C@H]2CC[C@@H](C(=O)N[C@@H](c3ccccc3)c3cn(CCCCc4ccc(CCCCn5cc([C@@H](NC(=O)[C@@H]6CC[C@@H]7CCCC[C@H](NC(=O)[C@H](C)NC)C(=O)N76)c6ccccc6)nn5)cc4)nn3)N2C1=O")
0.77
>>> recorded_number("Cc1nsc(Nc2cnc(C(F)(F)F)cn2)c1C(=O)Nc1ccc(O[C@H]2CCCN(CC(F)(F)F)C2)nc1")
-0.54
>>> recorded_number("CCc1ccc(-c2ncn(CC3(F)CCN(C)CC3)c2-c2ccnc3[nH]ccc23)nc1")
0.35
>>> recorded_number("O=C(Nc1c[nH]nc1-c1nc2cc(CN3CCOCC3)ccc2[nH]1)NC1CC1")
-0.59
>>> recorded_number("COc1c(-c2cn(C3CCC(=O)NC3=O)nn2)csc1C(=O)N1CCCC1 (stereo not given)")
0.89
>>> recorded_number("Cl.Clc1ccc(OC[C@H]2CCN2)cn1")
0.94
>>> recorded_number("O=C1C[C@@H]2OCC=C3CN4CC[C@]56c7ccccc7N1[C@H]5[C@H]2[C@H]3C[C@H]46")
0.86
>>> recorded_number("CCCCCNC(=O)N1CCC(CN(Cc2ccc(Cl)cc2)Cc2ccc([N+](=O)[O-])s2)C1 (stereo not given)")
0.62

# credit: ChEMBL document CHEMBL5303304
